Assay: Plasma protein binding in mouse assessed as free fraction by equilibrium dialysis assay
Type: ADME, cell-free
Each entry below carries its reported fraction unbound.
assay-readout: fraction unbound

COc1cnc2ccc(=O)n(CCN[C@H]3CC[C@H]4[C@H](C3)OC(=O)N4c3ccc4c(n3)NC(=O)CO4)c2c1 :: 0.25
N#Cc1cnc2ccc(=O)n(CCN[C@H]3CC[C@H]4[C@H](C3)OC(=O)N4c3ccc4c(n3)NC(=O)CO4)c2c1 :: > 0.3
N#Cc1cnc2ccc(=O)n(CCCN[C@H]3CC[C@H]4[C@H](C3)OC(=O)N4c3ccc4c(n3)NC(=O)CO4)c2c1 :: > 0.3
COc1cnc2ccc(=O)n(CCCN[C@H]3CC[C@H]4[C@H](C3)OC(=O)N4c3ccc4c(n3)NC(=O)CO4)c2c1 :: > 0.3
N#Cc1ccc2ccc(=O)n(CCN[C@H]3CC[C@H]4[C@H](C3)OC(=O)N4c3ccc4c(n3)NC(=O)CO4)c2c1 :: > 0.3
COc1ccc2ccc(=O)n(CCN[C@H]3CC[C@H]4[C@H](C3)OC(=O)N4c3ccc4c(n3)NC(=O)CS4)c2n1 :: 0.09

====

Test system: Pseudomonas aeruginosa
Experiment: Antibacterial activity against Pseudomonas aeruginosa ATCC 27853 assessed as bacterial growth inhibition by CLSI protocol based assay
Type: functional
assay-readout: MIC (µg/mL)

N#Cc1cnc2ccc(=O)n(CCCN[C@H]3CC[C@H]4[C@H](C3)OC(=O)N4c3ccc4c(n3)NC(=O)CO4)c2c1 :: 2
COc1ccc2ccc(=O)n(CCN[C@H]3CC[C@H]4[C@H](C3)OC(=O)N4c3ccc4c(n3)NC(=O)C(C)(C)O4)c2n1 :: 32
COc1ccc2ccc(=O)n(CCN[C@H]3CC[C@H]4[C@@H](C3)OC(=O)N4c3ccc4c(n3)NC(=O)CO4)c2n1 :: 2
O=c1ccc2ncc(=O)n3c2n1C[C@H]3CN1CCC(NCc2cc3c(cn2)OCCC3)CC1 [GEPOTIDACIN] :: 2
N#Cc1cnc2ccc(=O)n(CCN[C@H]3CC[C@H]4[C@H](C3)OC(=O)N4c3ccc4c(n3)NC(=O)CO4)c2c1 :: 2
COc1ccc2ccc(=O)n(CCN[C@H]3CC[C@H]4[C@H](C3)OC(=O)N4c3ccc4c(n3)NC(=O)CO4)c2c1 :: 4
COc1cnc2ccc(=O)n(CCN[C@H]3CC[C@H]4[C@H](C3)OC(=O)N4c3ccc4c(n3)NC(=O)CO4)c2c1 :: 2
N#Cc1cnc2ccc(=O)n(CCN[C@H]3CC[C@H]4[C@H](C3)OC(=O)N4c3ccc4c(n3)NC(=O)CS4)c2c1 :: 2
COc1cc2c(ccc(=O)n2CCN[C@H]2CC[C@H]3[C@H](C2)OC(=O)N3c2ccc3c(n2)NC(=O)CO3)cn1 :: 16
COc1cnc2ccc(=O)n(CCCN[C@H]3CC[C@H]4[C@H](C3)OC(=O)N4c3ccc4c(n3)NC(=O)CO4)c2c1 :: 2
COc1ccc2ccc(=O)n(CCN[C@H]3CC[C@H]4[C@H](C3)OC(=O)N4c3ccc4c(n3)NC(=O)CS4)c2n1 :: 1
COc1ccc2ccc(=O)n(CCCN[C@H]3CC[C@H]4[C@H](C3)OC(=O)N4c3ccc4c(n3)NC(=O)CO4)c2n1 :: 4
COc1ccc2ccc(=O)n(CCN[C@H]3CC[C@H]4[C@H](C3)OC(=O)N4c3ncc4c(n3)NC(=O)CO4)c2n1 :: 8

====

Assay: Protein binding in mouse plasma by equilibrium dialysis assay
Assay type: ADME, cell-free
Settings: read-out: PPB (converted)
assay-readout: fraction unbound

COc1ccc2ccc(=O)n(CCN[C@H]3CC[C@H]4[C@@H](C3)OC(=O)N4c3ccc4c(n3)NC(=O)CO4)c2n1 :: 0.878
COc1ccc2ccc(=O)n(CCN[C@@H]3CC[C@@H]4[C@H](C3)OC(=O)N4c3ccc4c(n3)NC(=O)CO4)c2n1 :: 0.873

====

pIC50: −log10 of the molar value.
What follows is a record of pIC50 for Voltage-gated inwardly rectifying potassium channel KCNH2 (Homo sapiens).
assay-readout: pIC50

COc1cnc2ccc(=O)n(CCN[C@H]3CC[C@H]4[C@H](C3)OC(=O)N4c3ccc4c(n3)NC(=O)CO4)c2n1 :: 5.05
O=C1COc2ccc(N3C(=O)O[C@H]4C[C@@H](NCCCn5c(=O)cnc6ccc(F)cc65)CC[C@@H]43)nc2N1 :: 4.89
COc1ccc2ccc(=O)n(CCN[C@@H]3CC[C@@H]4[C@@H](C3)OC(=O)N4c3ccc4c(n3)NC(=O)CO4)c2n1 :: 5.00
COc1ccc2ncc(=O)n(CCN[C@H]3CC[C@H]4[C@H](C3)OC(=O)N4c3ccc4c(n3)NC(=O)CO4)c2n1 :: 5.15
COc1ccc2ccc(=O)n(CCN[C@H]3CC[C@H]4[C@@H](C3)OC(=O)N4c3ccc4c(n3)NC(=O)CO4)c2n1 :: 5.52

====

Test system: Escherichia coli
Assay: Antibacterial activity against Escherichia coli W4573 assessed as bacterial growth inhibition by CLSI protocol based assay
Assay type: functional
Each entry below carries its reported MIC.
assay-readout: MIC (µg/mL)

COc1ncc2ccc(=O)n(CCN[C@H]3CC[C@H]4[C@H](C3)OC(=O)N4c3ccc4c(n3)NC(=O)CO4)c2n1 :: 32
O=c1ccc2ncc(=O)n3c2n1C[C@H]3CN1CCC(NCc2cc3c(cn2)OCCC3)CC1 :: 0.5
COc1ccc2ccc(=O)n(CCN[C@H]3CC[C@H]4[C@H](C3)OC(=O)N4c3ccc4c(n3)NC(=O)CS4)c2n1 :: 0.12
N#Cc1cnc2ccc(=O)n(CCCN[C@H]3CC[C@H]4[C@H](C3)OC(=O)N4c3ccc4c(n3)NC(=O)CO4)c2c1 :: 0.25
COc1cc2c(ccc(=O)n2CCN[C@H]2CC[C@H]3[C@H](C2)OC(=O)N3c2ccc3c(n2)NC(=O)CO3)cn1 :: 2

====

Each entry below carries its reported pIC50.
Biological target: Voltage-gated inwardly rectifying potassium channel KCNH2 (Homo sapiens)
Sequence (Q12809 whole entry): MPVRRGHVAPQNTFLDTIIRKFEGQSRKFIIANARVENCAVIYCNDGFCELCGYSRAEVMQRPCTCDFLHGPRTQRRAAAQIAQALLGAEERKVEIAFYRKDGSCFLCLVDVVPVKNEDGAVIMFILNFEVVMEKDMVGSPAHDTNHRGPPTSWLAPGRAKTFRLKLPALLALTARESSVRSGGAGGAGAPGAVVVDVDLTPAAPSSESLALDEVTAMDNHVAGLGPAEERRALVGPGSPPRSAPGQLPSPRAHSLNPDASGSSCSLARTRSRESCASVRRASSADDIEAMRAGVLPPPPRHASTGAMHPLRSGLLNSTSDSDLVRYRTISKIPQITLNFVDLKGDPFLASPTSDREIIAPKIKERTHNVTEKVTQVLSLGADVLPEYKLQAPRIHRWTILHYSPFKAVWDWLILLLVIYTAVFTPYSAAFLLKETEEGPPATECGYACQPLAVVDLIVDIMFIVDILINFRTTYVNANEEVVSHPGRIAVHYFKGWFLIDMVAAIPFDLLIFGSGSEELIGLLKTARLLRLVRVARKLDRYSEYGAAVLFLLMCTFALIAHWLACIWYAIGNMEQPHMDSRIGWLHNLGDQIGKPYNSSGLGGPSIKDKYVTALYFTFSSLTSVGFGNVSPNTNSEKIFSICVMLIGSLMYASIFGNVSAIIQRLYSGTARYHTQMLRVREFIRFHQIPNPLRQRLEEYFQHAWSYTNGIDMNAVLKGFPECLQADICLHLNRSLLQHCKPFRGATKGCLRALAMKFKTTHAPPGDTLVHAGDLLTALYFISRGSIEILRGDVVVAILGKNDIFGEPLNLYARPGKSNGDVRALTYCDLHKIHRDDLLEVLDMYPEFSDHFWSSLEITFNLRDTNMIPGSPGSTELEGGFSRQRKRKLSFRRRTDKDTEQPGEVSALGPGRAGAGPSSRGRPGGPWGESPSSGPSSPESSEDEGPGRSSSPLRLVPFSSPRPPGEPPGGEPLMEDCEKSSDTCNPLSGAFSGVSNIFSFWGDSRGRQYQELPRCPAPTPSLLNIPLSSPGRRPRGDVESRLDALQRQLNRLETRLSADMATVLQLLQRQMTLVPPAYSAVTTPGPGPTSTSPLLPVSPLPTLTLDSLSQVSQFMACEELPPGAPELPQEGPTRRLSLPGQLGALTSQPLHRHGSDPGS
Experiment: Inhibition of human ERG by Ionworks electrophysiology assay
Type: toxicity
pIC50: −log10 of the molar value.
assay-readout: pIC50

N#Cc1cnc2ccc(=O)n(CCN[C@H]3CC[C@H]4[C@H](C3)OC(=O)N4c3ccc4c(n3)NC(=O)CO4)c2c1 :: < 4.00
N#Cc1cnc2ccc(=O)n(CCCN[C@H]3CC[C@H]4[C@H](C3)OC(=O)N4c3ccc4c(n3)NC(=O)CO4)c2c1 :: < 4.00
COc1cnc2ccc(=O)n(CCCN[C@H]3CC[C@H]4[C@H](C3)OC(=O)N4c3ccc4c(n3)NC(=O)CO4)c2c1 :: < 4.00
N#Cc1ccc2ccc(=O)n(CCN[C@H]3CC[C@H]4[C@H](C3)OC(=O)N4c3ccc4c(n3)NC(=O)CO4)c2c1 :: < 4.00
O=c1ccc2ncc(=O)n3c2n1C[C@H]3CN1CCC(NCc2cc3c(cn2)OCCC3)CC1 [GEPOTIDACIN] :: < 4.00
COc1ccc2ccc(=O)n(CCN[C@H]3CC[C@H]4[C@H](C3)OC(=O)N4c3ncc4c(n3)NC(=O)CO4)c2n1 :: < 4.49
